biological target: METTL3/14 (Homo sapiens); construct: The enzyme used was full-length his-tagged METTL3; His; made in house; assay: METTL3/14 methyltransferase assay (METTL3_14 RFMS, RapidFire mass spectrometry); type: biochemical; conditions: 5 nM METTL3/14, 0.2 μM RNA substrate, 0.5 μM SAM; lower limit of the assay IC50=5 nM; Compounds 63-265; read-out: METTL3_14 RFMS IC50
IC50: recorded values
Note: unit µM is implicit; provide only the numeric part.

Below: 10 compounds and their reported IC50.
Compound: O=C(NCc1cn2cc(CN[C@@H]3C[C@H]3C(F)(F)F)ccc2n1)c1cc(=O)n2ccccc2n1
Property Label: IC50
Measurement: 0.755
//
Compound: c1cc(-c2cn(Cc3cn4cc(CNCC5CCCCC5)ccc4n3)nn2)c2cn[nH]c2c1
Property Label: IC50
Measurement: 0.0127
//
Compound: CC1(C)CC1CNCc1ccc2nc(CNC(=O)c3cc(=O)n4ccccc4n3)cn2c1 (centres unmarked)
Property Label: IC50
Measurement: 0.0195
//
Compound: O=C(NCc1cn2cc(CNCC3(F)CCCC3)ccc2n1)c1cc(=O)n2ccccc2n1
Property Label: IC50
Measurement: 0.0441
//
Compound: Cc1ccc2nc(CNC(=O)c3cc(=O)n4c(n3)CCCC4)cn2c1
Property Label: IC50
Measurement: 7.33
//
Compound: O=C(NCc1cn2cc(CNCc3ccccc3)ccc2n1)c1cc(=O)c2ccccc2o1
Property Label: IC50
Measurement: 0.0467
//
Compound: CC1(C)CCCCN1Cc1ccc2nc(CNC(=O)c3cc(=O)n4ccccc4n3)cn2c1
Property Label: IC50
Measurement: 0.305
//
Compound: O=C(NCc1cn2cc(CNCCC3CCCCO3)ccc2n1)c1cc(=O)n2ccccc2n1 (centres unmarked)
Property Label: IC50
Measurement: 1.18
//
Compound: C[C@H](NCc1ccc2nc(CNC(=O)c3cc(=O)n4ccccc4n3)cn2c1)C(C)(C)C
Property Label: IC50
Measurement: 0.0543
//
Compound: CC(C)(F)CNCc1ccc2nc(CNC(=O)c3cc(=O)n4ccccc4n3)cn2c1
Property Label: IC50
Measurement: 0.0611

Problem: Dear colleague, I am looking for the recorded IC50 of the following compound: CC1(C)CCC(CNCc2ccc3nc(CNC(=O)c4cc(=O)n5ccccc5n4)cn3c2)O1 (centres unmarked)
Solution: 0.136

Problem: Entry under review: O=C(NCc1cn2cc(CNCC3CCCCC3)ccc2n1)c1cc(=O)c2ccccc2o1 . Reported IC50?
Solution: 0.0294

Problem: Find the recorded IC50 belonging to O=C(NCc1cn2cc(CNCCC3CCCC3)ccc2n1)c1cc(=O)n2ccccc2n1 and report it.
Solution: 0.0801

Problem: Need IC50, item O=C(NCc1cn2cc(CNCC3CC(F)(F)C3)ccc2n1)c1cc(=O)n2ccccc2n1
Solution: 0.0106

Problem: I'd like to know its IC50. The compound in question is O=C(NCc1cn2cc(CNCC3CCOC3)ccc2n1)c1cc(=O)n2ccccc2n1 (centres unmarked)
Solution: 0.0247

Problem: GET /values?readout=IC50&item= CN(CCC1CC1)Cc1ccc2nc(CNC(=O)c3cc(=O)n4ccccc4n3)cn2c1
Solution: 0.0615

Problem: I'd like to know its IC50. The compound in question is O=C(NCc1cn2cc(CNCC3CCCCN3)ccc2n1)c1cc(=O)n2ccccc2n1 (centres unmarked)
Solution: 0.26

----------
molecular target: METTL3/14 (Homo sapiens, UniProt Q86U44); construct: The enzyme used was full-length his-tagged METTL3; His; made in house; test: METTL3/14 methyltransferase assay (METTL3_14 RFMS, RapidFire mass spectrometry); assay type: biochemical; conditions: 5 nM METTL3/14, 0.2 μM RNA substrate, 0.5 μM SAM; lower limit of the assay IC50=5 nM; Compounds 63-265; read-out: METTL3_14 RFMS IC50
Sequence (Q86U44 whole entry): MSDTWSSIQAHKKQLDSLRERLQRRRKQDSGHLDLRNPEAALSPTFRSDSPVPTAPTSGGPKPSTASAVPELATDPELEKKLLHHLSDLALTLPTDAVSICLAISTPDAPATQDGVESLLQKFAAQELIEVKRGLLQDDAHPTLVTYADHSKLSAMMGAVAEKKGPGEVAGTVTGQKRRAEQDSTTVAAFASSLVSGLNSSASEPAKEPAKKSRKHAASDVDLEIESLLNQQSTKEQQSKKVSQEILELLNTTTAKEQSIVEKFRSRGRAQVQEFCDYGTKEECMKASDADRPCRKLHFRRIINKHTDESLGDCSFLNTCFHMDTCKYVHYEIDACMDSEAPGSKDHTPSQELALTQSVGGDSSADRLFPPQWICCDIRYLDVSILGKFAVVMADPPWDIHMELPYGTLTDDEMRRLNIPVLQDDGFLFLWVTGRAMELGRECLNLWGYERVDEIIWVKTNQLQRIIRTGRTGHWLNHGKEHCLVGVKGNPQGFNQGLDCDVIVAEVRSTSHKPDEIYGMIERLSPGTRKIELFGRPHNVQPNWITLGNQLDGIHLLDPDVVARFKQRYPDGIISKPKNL
Sequence (Q9HCE5 whole entry partner): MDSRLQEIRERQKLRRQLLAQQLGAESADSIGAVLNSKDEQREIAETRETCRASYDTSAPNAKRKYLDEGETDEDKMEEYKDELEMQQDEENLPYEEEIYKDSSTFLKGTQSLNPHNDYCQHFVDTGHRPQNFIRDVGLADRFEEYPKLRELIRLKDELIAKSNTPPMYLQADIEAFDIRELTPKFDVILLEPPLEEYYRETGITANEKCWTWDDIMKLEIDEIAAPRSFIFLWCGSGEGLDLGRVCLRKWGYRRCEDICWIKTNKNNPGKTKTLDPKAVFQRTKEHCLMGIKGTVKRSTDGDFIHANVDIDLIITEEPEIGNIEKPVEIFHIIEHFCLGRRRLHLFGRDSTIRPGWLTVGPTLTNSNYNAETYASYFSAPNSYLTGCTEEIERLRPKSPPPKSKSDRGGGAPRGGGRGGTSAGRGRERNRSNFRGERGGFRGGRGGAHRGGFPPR
pIC50: −log10 of the molar value.
Given measured pIC50, output Y if it is greater than or equal to 7 and N if not.

Structure: CC1(C)CCN(Cc2ccc3nc(Cn4cc(-c5cccc6[nH]ncc56)nn4)cn3c2)CC1
Assigned Label: Y
--
Structure: CC1(CNCc2ccc3nc(CNC(=O)c4cc(=O)c5ccccc5o4)cn3c2)CCCCC1
Assigned Label: Y
--
Structure: O=C(NCc1cn2cc(CN3CCCC(F)(F)C3)ccc2n1)c1cc(=O)n2ccccc2n1
Assigned Label: N

Could you now consider this next molecule?
Problem: Decide: pIC50 of CC(C)(C)C(C)(C)NCc1ccc2nc(CNC(=O)c3cc(=O)n4ccccc4n3)cn2c1 >= 7?
Solution: Y

----------
// values below are reported pIC50
molecular target: METTL3/14 (Homo sapiens, UniProt Q86U44); construct: The enzyme used was full-length his-tagged METTL3; His; made in house; experiment: METTL3/14 methyltransferase assay (METTL3_14 RFMS, RapidFire mass spectrometry); format: biochemical; settings: 5 nM METTL3/14, 0.2 μM RNA substrate, 0.5 μM SAM; lower limit of the assay IC50=5 nM; Compounds 266-351; read-out: METTL3_14 RFMS IC50
Keep in mind that pIC50 stands for -log10 of concentration in molar terms.

Compound: CC1(C)CCN(Cc2ccc3nc(CNC(=O)c4cc(=O)c5c(F)cccc5o4)cn3c2)CC1 [Example 310]
pIC50: 6.73
//
Compound: OC1(CNCc2ccc3nc(Cn4cc(-c5cc(F)cc6[nH]ncc56)nn4)cn3c2)CCC1 [Example 319]
pIC50: 8.11

Problem: What value of measured pIC50 is listed for CC1(C)CC(CNCc2ccc3nc(CNC(=O)c4cc(=O)n5ccccc5n4)cn3c2)C1 [Compound 291] ?
Solution: 7.21

Problem: Query: pIC50; subject: c1cc(-c2cn(Cc3cn4cc(CNCC5CCC5)ccc4n3)cn2)c2cn[nH]c2c1 [Example 339]
Solution: 8.00

----------
molecular target: METTL3/14 (Homo sapiens); construct: The enzyme used was full-length his-tagged METTL3; His; made in house; assay: METTL3/14 methyltransferase assay (METTL3_14 RFMS, RapidFire mass spectrometry); type: biochemical; details: 5 nM METTL3/14, 0.2 μM RNA substrate, 0.5 μM SAM; lower limit of the assay IC50=5 nM; Compounds 63-265; read-out: METTL3_14 RFMS IC50
// IC50 lookup, one value per entry
Return type: number; implicit unit nM.

Problem: Return IC50 measured with METTL3/14 (Homo sapiens) given this compound: O=C(NCc1cn2ccc(CNCC3CCCCC3)cc2n1)c1cc(=O)n2ccccc2n1
Solution: 2170

----------
biological target: METTL3/14 (Homo sapiens, UniProt Q86U44); construct: The enzyme used was full-length his-tagged METTL3; His; made in house; assay: METTL3/14 methyltransferase assay (METTL3_14 RFMS, RapidFire mass spectrometry); format: biochemical; settings: read-out: METTL3_14 RFMS IC50;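 also: recombinant His-tagged METTL3 with FLAG-tagged METTL14 from baculovirus, SAH product quantified by mass spectrometry against isotope-labelled internal standards, 60 min at room temperature, scaled between no-RNA and DMSO-only wells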
Entries annotated with measured IC50
Give just the numeric value; nM need not be written.

Here are 5 compounds together with their reported answers.
Compound: O=C(NCc1cn2cc(C(Cc3ccccc3)N(CC3CCC3)CC3CCC3)ccc2n1)c1cc(=O)n2ccccc2n1 (centres unmarked) [Example 314]
IC50 (nM): 7110

Compound: O=C(NCc1cn2cc(CNCc3ccc(Cl)cc3)ccc2n1)c1cc(=O)n2ccccc2n1 [Compound 73]
IC50 (nM): 64.9

Compound: C#Cc1cc(C(=O)NCc2cn3cc(C)ccc3n2)c2cn[nH]c2c1 [Compound 14]
IC50 (nM): 5900

Compound: O=C(NCc1cn2cc(CNCC34CC(C(F)(F)F)(C3)C4)ccc2n1)c1cc(=O)n2ccccc2n1 [Compound 87]
IC50 (nM): 48.5

Compound: O=C(NCc1cn2ccc(CNCCc3ccccc3)cc2n1)c1cc(=O)n2ccccc2n1 [Compound 243]
IC50 (nM): 1450

Problem: I'd like to know its IC50. The compound in question is O=C(NCc1cn2cc(NCCc3ccccc3)ccc2n1)c1cc(=O)n2ccccc2n1 [Compound 191]
Solution: 4790

----------
tested on: MOLM-13 cells; experiment: MOLM13 CTG - analysis of cell proliferation (Cell Titre Glo); assay type: cell-based; conditions: Homo sapiens, geometric mean, read-out: CTG MOLM13 cells IC50 GEOMEAN
Here the recorded IC50 is given for each entry.

Problem: Please give the measured IC50 for this molecule: CC(NCc1ccc2nc(CNC(=O)c3cc(=O)n4ccccc4n3)cn2c1)C1CCCCC1 (centres unmarked)
Solution: 8.74 µM

Problem: Tell me the measured IC50 of O=C1CC(c2ccc3nc(CNC(=O)c4cc(=O)n5ccccc5n4)cn3c2)NC(C2CCCCC2)C1 (mixture of isomers) , please.
Solution: 17.9 µM

Problem: What value of measured IC50 is listed for CC(C)(NCc1ccc2nc(CNC(=O)c3cc(=O)n4ccccc4n3)cn2c1)c1ccccc1 ?
Solution: 6.04 µM

Problem: Name the reported IC50 value associated with the molecule O=C(NCc1cn2cc(CNCc3ccccc3)ccc2n1)c1cccc2[nH]ncc12
Solution: 9.89 µM

Problem: Look up IC50: COc1ccc2[nH]ncc2c1-c1cn(Cc2cn3cc(CNCC4(O)CCC4)ccc3n2)nn1
Solution: 5.33 µM

Problem: # lookup: IC50 of CC(C)(C)CNCc1ccc2nc(Cn3cc(-c4cc(Br)cc5[nH]ncc45)nn3)cn2c1
Solution: 0.649 µM

Problem: Which value of IC50 has been reported for OC1(CNCc2ccc3nc(Cn4cc(-c5ccc(F)c6[nH]ncc56)nn4)cn3c2)CCC1 in the records?
Solution: 5.61 µM

Problem: Item NC(=O)c1cc(-c2cn(Cc3cn4cc(CNCC5CCC5)ccc4n3)nn2)c2cn[nH]c2c1 has what recorded IC50?
Solution: ≥ 30 µM

FYI, the data here is from patent US12358915B2.
